Reported pIC50 values are given for each entry in this list.
molecular target: human KLK1 (human, UniProt P06870 25-262, limits assumed); experiment: column 7: KLK1 activity assay, 3 nM KLK1
Sequence (P06870 25-262 limits assumed): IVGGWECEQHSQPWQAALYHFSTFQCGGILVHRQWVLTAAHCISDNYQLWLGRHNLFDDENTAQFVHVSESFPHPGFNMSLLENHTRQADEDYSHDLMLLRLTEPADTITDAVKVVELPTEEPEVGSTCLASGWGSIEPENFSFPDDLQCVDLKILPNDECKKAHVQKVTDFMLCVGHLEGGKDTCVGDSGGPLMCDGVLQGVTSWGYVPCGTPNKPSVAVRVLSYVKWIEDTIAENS
pIC50: −log10 of the molar value.

Some binders with known pIC50 results, for comparison:
9B6 (antibody, V domains shown) VH: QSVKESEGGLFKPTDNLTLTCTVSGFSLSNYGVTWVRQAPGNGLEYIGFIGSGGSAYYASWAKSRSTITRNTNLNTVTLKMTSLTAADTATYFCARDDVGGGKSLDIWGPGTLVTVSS VL: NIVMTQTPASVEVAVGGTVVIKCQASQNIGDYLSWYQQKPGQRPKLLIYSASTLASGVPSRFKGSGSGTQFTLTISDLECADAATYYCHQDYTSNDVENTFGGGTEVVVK = < 7.00
10C5 (antibody, V domains shown, Rabbit monoclonal; also called Chimeric 10C5; KLK5.10C5 (complex sample)) VH: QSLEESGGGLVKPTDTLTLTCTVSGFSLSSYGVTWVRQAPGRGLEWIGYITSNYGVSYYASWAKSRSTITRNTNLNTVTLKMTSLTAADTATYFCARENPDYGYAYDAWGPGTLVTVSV VL: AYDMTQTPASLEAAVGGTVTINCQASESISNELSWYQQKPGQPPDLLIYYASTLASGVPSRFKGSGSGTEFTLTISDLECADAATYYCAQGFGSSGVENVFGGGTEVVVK = < 7.00

Measured pIC50 of 2B11 (antibody, V domains shown) VH: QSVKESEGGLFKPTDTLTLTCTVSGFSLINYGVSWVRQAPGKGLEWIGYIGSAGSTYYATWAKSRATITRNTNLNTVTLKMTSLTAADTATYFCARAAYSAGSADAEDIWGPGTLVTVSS VL: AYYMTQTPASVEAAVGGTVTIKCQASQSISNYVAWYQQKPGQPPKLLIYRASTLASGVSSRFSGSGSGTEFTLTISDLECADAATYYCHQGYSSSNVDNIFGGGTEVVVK : < 7.00

src = patent US20200040103A1
